system: human GI microtissue; test: MTT viability assay; type: cell-based; details: Caco-2, read-out: MTT IC50
Reported IC50 by item:
The answer is to be given in µM; state only the numeric part.

Molecule | Experimental target | IC50 / µM
CNC(=O)c1cc(Oc2ccc(NC(=O)Nc3ccc(Cl)c(C(F)(F)F)c3)cc2)ccn1 | human GI microtissue | 65
CC(=O)Oc1cccc2c1C(=O)c1c(OC(C)=O)cc(C(=O)O)cc1C2=O | human GI microtissue | 65

Look up and state reported IC50 for `COc1c2occc2cc2ccc(=O)oc12`
150

Look up and state reported IC50 for `C[C@@H](Oc1cc(-c2cnn(C3CCNCC3)c2)cnc1N)c1c(Cl)ccc(F)c1Cl`
22

Look up and state reported IC50 for CCOC(=O)C1=C(COCCN)NC(C)=C(C(=O)OC)C1c1ccccc1Cl (centres unmarked)
45
